- Assay method text: self-splicing fitness, log relative to wild type (ln ratio); higher = more splicing; Tetrahymena group I intron in knt gene, E. coli kanamycin selection, DiMSum; sequences stand for … in CUCUCU…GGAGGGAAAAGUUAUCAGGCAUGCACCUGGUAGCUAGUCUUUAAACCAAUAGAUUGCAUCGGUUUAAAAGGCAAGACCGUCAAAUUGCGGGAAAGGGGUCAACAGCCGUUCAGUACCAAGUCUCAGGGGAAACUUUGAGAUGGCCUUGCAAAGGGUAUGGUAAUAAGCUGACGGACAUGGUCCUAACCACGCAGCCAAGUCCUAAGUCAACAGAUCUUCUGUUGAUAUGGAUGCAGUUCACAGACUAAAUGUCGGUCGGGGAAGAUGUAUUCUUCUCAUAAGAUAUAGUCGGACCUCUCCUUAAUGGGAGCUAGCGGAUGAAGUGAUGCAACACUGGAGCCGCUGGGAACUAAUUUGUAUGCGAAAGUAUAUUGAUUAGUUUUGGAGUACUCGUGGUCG;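 note: selection with 25 µg/mL kanamycin versus none on LB agar overnight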
- Condition description: 30 °C
Please go through the items and note down their self-splicing fitness (ln).
Please reply with the number alone, leaving off any unit.

Inquiry: Assign self-splicing fitness (ln) to the following record: AUGGAGCAAUAUUACGGCCG
Reply text: -1.27

Inquiry: Assign self-splicing fitness (ln) to the following record: GCGAAGCAAUAUUACGGCUC
Reply text: -1.78

Inquiry: Assign self-splicing fitness (ln) to the following record: GAUAAGCAAUAUUACGUGAA
Reply text: -2.2

Inquiry: Assign self-splicing fitness (ln) to the following record: CGACAGCAAUAUUACGGAAA
Reply text: -1.98

Inquiry: Assign self-splicing fitness (ln) to the following record: CGAGAGCAAUAUUACGGCAG
Reply text: -2

Inquiry: Assign self-splicing fitness (ln) to the following record: AGGAAGCAAUAUUACGGUCA
Reply text: -0.983

Inquiry: Assign self-splicing fitness (ln) to the following record: UUGGAGCAAUAUUACGUGAC
Reply text: -2.9

Inquiry: Assign self-splicing fitness (ln) to the following record: CUUCAGCAAUAUUACGACAA
Reply text: -2.42

Inquiry: Assign self-splicing fitness (ln) to the following record: CCGCAGCAAUAUUACGGGAA
Reply text: -4.03

Inquiry: Assign self-splicing fitness (ln) to the following record: GGUAAGCAAUAUUACGUCUA
Reply text: -0.569

Inquiry: Assign self-splicing fitness (ln) to the following record: AAUCAGCAAUAUUACGAAAC
Reply text: -1.97

Inquiry: Assign self-splicing fitness (ln) to the following record: UCUAAGCAAUAUUACGGAGA
Reply text: -1.6

Inquiry: Assign self-splicing fitness (ln) to the following record: AUCGAGCAAUAUUACGACCU
Reply text: -0.95

Inquiry: Assign self-splicing fitness (ln) to the following record: UCGCAGCAAUAUUACGAUCU
Reply text: -1.17

Inquiry: Assign self-splicing fitness (ln) to the following record: UAUUAGCAAUAUUACGCUGU
Reply text: -2.57

Inquiry: Assign self-splicing fitness (ln) to the following record: GACGAGCAAUAUUACGACGG
Reply text: -1.82

Inquiry: Assign self-splicing fitness (ln) to the following record: AAGUAGCAAUAUUACGUGCU
Reply text: -1.29

Inquiry: Assign self-splicing fitness (ln) to the following record: GCGUAGCAAUAUUACGCACC
Reply text: -4.01

Inquiry: Assign self-splicing fitness (ln) to the following record: UGAUAGCAAUAUUACGAUUC
Reply text: -2.33

Inquiry: Assign self-splicing fitness (ln) to the following record: GAAAAGCAAUAUUACGACAC
Reply text: -0.467

Inquiry: Assign self-splicing fitness (ln) to the following record: AGAAAGCAAUAUUACGCCAA
Reply text: -3.75

Inquiry: Assign self-splicing fitness (ln) to the following record: GGCAAGCAAUAUUACGUCUG
Reply text: -3.13

Inquiry: Assign self-splicing fitness (ln) to the following record: AACAAGCAAUAUUACGCGCC
Reply text: -0.296

Inquiry: Assign self-splicing fitness (ln) to the following record: UUUGAGCAAUAUUACGCGUG
Reply text: -2.33

Inquiry: Assign self-splicing fitness (ln) to the following record: AAGGAGCAAUAUUACGGCAU
Reply text: -2.77

Inquiry: Assign self-splicing fitness (ln) to the following record: CCAAAGCAAUAUUACGCACU
Reply text: -2.09

Inquiry: Assign self-splicing fitness (ln) to the following record: CAUGAGCAAUAUUACGUCCA
Reply text: -2.74

Inquiry: Assign self-splicing fitness (ln) to the following record: UGCGAGCAAUAUUACGAACU
Reply text: -1.88

Inquiry: Assign self-splicing fitness (ln) to the following record: UAUGAGCAAUAUUACGCCGG
Reply text: -1.7

Inquiry: Assign self-splicing fitness (ln) to the following record: CCGGAGCAAUAUUACGUCUC
Reply text: -3.22

Inquiry: Assign self-splicing fitness (ln) to the following record: UAUUAGCAAUAUUACGUGCG
Reply text: -0.929

Inquiry: Assign self-splicing fitness (ln) to the following record: UGCUAGCAAUAUUACGGAGU
Reply text: -4.11

Inquiry: Assign self-splicing fitness (ln) to the following record: GCUGAGCAAUAUUACGGGGA
Reply text: -2.81

Inquiry: Assign self-splicing fitness (ln) to the following record: CCUGAGCAAUAUUACGAUAU
Reply text: -4.45
